targetSystem: HLA-A*01:01 (Homo sapiens, UniProt P04439, A114D/A174V/A182V/D101N/D185E/E176A/E190D/L180R/Q94H/R68K/S129P/T187R/V100A/V91M/W191G)
experiment: MHC binding assay: UV-ligand exchange, ELISA of stabilized MHC complexes (peptide exchange yield)
experimentalSetup: binding to HLA-A*01:01, UV-ligand exchange
measurementName: Peptide exchange

Please review the entries below; each comes with its answer.
169 (TVDNANILL; listed as Homo sapiens) [compound 169] ... ++ (>20% = ++)
363 (LTDRDVSFY; listed as Homo sapiens) [compound 363] ... ++++ (>75% = ++++)
129 (STIDFRAGF; listed as Homo sapiens) [compound 129] ... ++ (>20% = ++)
364 (DTGYLQLYY; listed as Homo sapiens) [compound 364] ... ++++ (>75% = ++++)
348 (DSTDGCLLSF; listed as Homo sapiens) [compound 348] ... ++ (>20% = ++)

Here's the next entry for you.
Provide only the value of recorded Peptide exchange for 72 (VTDSTTKIAY; listed as Homo sapiens) [compound 72]
+++ (>50 = +++)

----------
targetSystem: HLA-A*01:01 (Homo sapiens, UniProt P04439, A114D/A174V/A182V/D101N/D185E/E176A/E190D/L180R/Q94H/R68K/S129P/T187R/V100A/V91M/W191G)
experiment: MHC binding assay: UV-ligand exchange, ELISA of stabilized MHC complexes (peptide exchange yield)
experimentalSetup: binding to HLA-A*01:01, UV-ligand exchange
measurementName: Peptide exchange

Please review the entries below; each comes with its answer.
49 (GSFSIQHTY; listed as Homo sapiens) [compound 49] ... ++ (>20% = ++)
55 (ATEGDVLNY; listed as Homo sapiens) [compound 55] ... +++ (>50 = +++)
60 (MTEKFLFLY; listed as Homo sapiens) [compound 60] ... ++++ (>75% = ++++)
188 (DIPDYLLQY; listed as Homo sapiens) [compound 188] ... +++ (>50 = +++)
164 (KLAGTVFQY; listed as Homo sapiens) [compound 164] ... ++ (>20% = ++)

Provide only the value of recorded Peptide exchange for 78 (QLDSAVKNLY; listed as Homo sapiens) [compound 78]
+++ (>50 = +++)

----------
targetSystem: HLA-A*01:01 (Homo sapiens, UniProt P04439, A114D/A174V/A182V/D101N/D185E/E176A/E190D/L180R/Q94H/R68K/S129P/T187R/V100A/V91M/W191G)
experiment: MHC binding assay: UV-ligand exchange, ELISA of stabilized MHC complexes (peptide exchange yield)
experimentalSetup: binding to HLA-A*01:01, UV-ligand exchange
measurementName: Peptide exchange

Please review the entries below; each comes with its answer.
119 (TVFDENLSRY; listed as Homo sapiens) [compound 119] ... ++ (>20% = ++)
142 (IEKFAVLY; listed as Homo sapiens) [compound 142] ... +++ (>50 = +++)
341 (PANYLGKMTY; listed as Homo sapiens) [compound 341] ... +++ (>50 = +++)
154 (SIEVFTHY; listed as Homo sapiens) [compound 154] ... +++ (>50 = +++)

Provide only the value of recorded Peptide exchange for 276 (QITSFASGTSY; listed as Homo sapiens) [compound 276]
+++ (>50 = +++)

Provide only the value of recorded Peptide exchange for 246 (ARLEGEIATY; listed as Homo sapiens) [compound 246]
++ (>20% = ++)

Provide only the value of recorded Peptide exchange for 9 (QLDSTLDSY; listed as Homo sapiens) [compound 9]
+++ (>50 = +++)

Provide only the value of recorded Peptide exchange for 115 (NEIDIHSIYFY; listed as Homo sapiens) [compound 115]
++ (>20% = ++)

Provide only the value of recorded Peptide exchange for 86 (VDPASNTY; listed as Homo sapiens) [compound 86]
++ (>20% = ++)

Provide only the value of recorded Peptide exchange for 32 (GTDKQNSTLRY; listed as Homo sapiens) [compound 32]
+++ (>50 = +++)

----------
targetSystem: HLA-A*01:01 (Homo sapiens, UniProt P04439, A114D/A174V/A182V/D101N/D185E/E176A/E190D/L180R/Q94H/R68K/S129P/T187R/V100A/V91M/W191G)
experiment: MHC binding assay: UV-ligand exchange, ELISA of stabilized MHC complexes (peptide exchange yield)
experimentalSetup: binding to HLA-A*01:01, UV-ligand exchange
measurementName: Peptide exchange

74 (EMEQQSQEY; listed as Homo sapiens) [compound 74] ... ++++ (>75% = ++++)
98 (NFSDLVFTY; listed as Homo sapiens) [compound 98] ... ++ (>20% = ++)
245 (LSDNAANRY; listed as Homo sapiens) [compound 245] ... +++ (>50 = +++)
266 (LTDSFLLRF; listed as Homo sapiens) [compound 266] ... ++++ (>75% = ++++)
130 (YIGLKGLYF; listed as Homo sapiens) [compound 130] ... ++ (>20% = ++)
190 (VSSTVHNLY; listed as Homo sapiens) [compound 190] ... ++++ (>75% = ++++)
321 (DGIADASNLSYY; listed as Homo sapiens) [compound 321] ... ++ (>20% = ++)
123 (LLKAKDILY; listed as Homo sapiens) [compound 123] ... ++ (>20% = ++)
53 (YLEDRPLSQLY; listed as Homo sapiens) [compound 53] ... ++++ (>75% = ++++)
161 (EAAPDIMHY; listed as Homo sapiens) [compound 161] ... ++ (>20% = ++)

Provide only the value of recorded Peptide exchange for 155 (HTMEVTVY; listed as Homo sapiens) [compound 155]
+++ (>50 = +++)

Provide only the value of recorded Peptide exchange for 28 (PSEVPVDSHYY; listed as Homo sapiens) [compound 28]
+++ (>50 = +++)

Provide only the value of recorded Peptide exchange for 397 (NSAINPLIY; listed as Homo sapiens) [compound 397]
++++ (>75% = ++++)

Provide only the value of recorded Peptide exchange for 34 (SSWSAGENDSY; listed as Homo sapiens) [compound 34]
+++ (>50 = +++)

Provide only the value of recorded Peptide exchange for 39 (WSQSSSLMY; listed as Homo sapiens) [compound 39]
++++ (>75% = ++++)

Provide only the value of recorded Peptide exchange for 88 (KEVDPAGHSYI; listed as Homo sapiens) [compound 88]
++ (>20% = ++)

Provide only the value of recorded Peptide exchange for 97 (FPAPPAHWFY; listed as Homo sapiens) [compound 97]
++ (>20% = ++)

Provide only the value of recorded Peptide exchange for 294 (MMEMEGMY; listed as Homo sapiens) [compound 294]
+++ (>50 = +++)

Provide only the value of recorded Peptide exchange for 200 (SLPEFGLTY; listed as Homo sapiens) [compound 200]
++ (>20% = ++)

Provide only the value of recorded Peptide exchange for 156 (STALSILLL; listed as Homo sapiens) [compound 156]
++ (>20% = ++)

----------
targetSystem: HLA-A*01:01 (Homo sapiens, UniProt P04439, A114D/A174V/A182V/D101N/D185E/E176A/E190D/L180R/Q94H/R68K/S129P/T187R/V100A/V91M/W191G)
experiment: MHC binding assay: UV-ligand exchange, ELISA of stabilized MHC complexes (peptide exchange yield)
experimentalSetup: binding to HLA-A*01:01, UV-ligand exchange
measurementName: Peptide exchange

Please review the entries below; each comes with its answer.
38 (KSWSQSSSLMY; listed as Homo sapiens) [compound 38] ... +++ (>50 = +++)
133 (ITDVGPGNY; listed as Homo sapiens) [compound 133] ... +++ (>50 = +++)
128 (YTEFVDATFTK; listed as Homo sapiens) [compound 128] ... ++++ (>75% = ++++)
141 (DAVAPGREY; listed as Homo sapiens) [compound 141] ... ++ (>20% = ++)
373 (FHADSDDESF; listed as Homo sapiens) [compound 373] ... + (>10% =+)

Provide only the value of recorded Peptide exchange for 30 (VTTDKPRAY; listed as Homo sapiens) [compound 30]
++ (>20% = ++)

Provide only the value of recorded Peptide exchange for 298 (KFDVINHYF; listed as Homo sapiens) [compound 298]
++ (>20% = ++)

Provide only the value of recorded Peptide exchange for 296 (HMLAAMAY; listed as Homo sapiens) [compound 296]
++ (>20% = ++)

Provide only the value of recorded Peptide exchange for 354 (EIIRYIFAY; listed as Homo sapiens) [compound 354]
++ (>20% = ++)

----------
targetSystem: HLA-A*01:01 (Homo sapiens, UniProt P04439, A114D/A174V/A182V/D101N/D185E/E176A/E190D/L180R/Q94H/R68K/S129P/T187R/V100A/V91M/W191G)
experiment: MHC binding assay: UV-ligand exchange, ELISA of stabilized MHC complexes (peptide exchange yield)
experimentalSetup: binding to HLA-A*01:01, UV-ligand exchange
measurementName: Peptide exchange

Please review the entries below; each comes with its answer.
244 (VTKYIAGPY; listed as Homo sapiens) [compound 244] ... ++ (>20% = ++)
100 (TTSSAISWILY; listed as Homo sapiens) [compound 100] ... +++ (>50 = +++)
361 (FTAEEGQLY; listed as Homo sapiens) [compound 361] ... +++ (>50 = +++)
57 (ASDPASSTSCY; listed as Homo sapiens) [compound 57] ... +++ (>50 = +++)
357 (MSPDIALLYL; listed as Homo sapiens) [compound 357] ... +++ (>50 = +++)
177 (LVDGKWQEF; listed as Homo sapiens) [compound 177] ... ++ (>20% = ++)

Provide only the value of recorded Peptide exchange for 241 (SLMVASLTY; listed as Homo sapiens) [compound 241]
++ (>20% = ++)

Provide only the value of recorded Peptide exchange for 2 (VDPIGHLY; listed as Homo sapiens) [compound 2]
++ (>20% = ++)
